biological target: T1, his-tagged ROR2 extracellular domain (ROR2-ECD, G&P Biosciences, cat. no. FCL0192) (human, UniProt Q01974 34-403); experiment: BLI (Octet), antibody on anti-human IgG Fc sensor, ROR2-ECD 1.56-100 nM as analyte
T1 construct: Bought protein; also called human ROR2-ECD; recombinant human ROR2-ECD; not shown: his tag
T1 sequence (Q01974 34-403): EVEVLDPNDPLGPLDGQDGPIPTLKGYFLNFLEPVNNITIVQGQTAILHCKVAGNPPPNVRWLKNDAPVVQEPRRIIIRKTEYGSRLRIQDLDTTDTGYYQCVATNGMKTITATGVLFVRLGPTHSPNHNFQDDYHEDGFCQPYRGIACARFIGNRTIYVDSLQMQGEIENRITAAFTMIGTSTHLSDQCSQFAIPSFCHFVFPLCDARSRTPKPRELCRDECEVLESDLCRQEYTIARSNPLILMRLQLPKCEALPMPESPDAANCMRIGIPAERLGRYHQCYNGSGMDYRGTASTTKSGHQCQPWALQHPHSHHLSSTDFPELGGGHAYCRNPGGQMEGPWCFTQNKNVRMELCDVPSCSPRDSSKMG
Please provide measured koff for the entries that follow.
Respond with the bare value in s⁻¹.

Enquiry: Could you tell me which koff is on file for IgG1-ROR2-A-HC1LC1-FEAR (antibody, V domains shown, Humanized variant) VH: QSVLESGGGLVQPGGSLRLSCTVSGFSLSSYSMSWVRQAPGKGLEWIGVIYVNSKTWYANWAKGRFTISKTSTTVDLKITSPTAEDTATYFCARGDAGYTTNSWLWGQGTLVTVSS VL: AFELTQSPSSLSASVGDRVTITCQASESIDNYCSWYQQKPGKAPKLLIYQAFKLASGVPSRFRGSGSGTDFTLTISSLQSEDFATYYCQSYSGISTTAFGGGTEVVIK ?
Return: 0.00096

Enquiry: Follow-up item: IgG1-ROR2-A-HC2LC2-FEAR (antibody, V domains shown, Humanized variant) VH: QSVLESGGGLVQPGGSLRLSCTVSGFSLSSYSMSWVRQAPGKGLEWIGVIYVNSKTWYANWAKGRFTISKTSTTVYLQMNSLRAEDTATYFCARGDAGYTTNSWLWGQGTLVTVSS VL: AFELTQSPSSLSASVGDRVTITCQASESIDNYLSWYQQKPGKAPKLLIYQAFKLASGVPSRFRGSGSGTDFTLTISSLQSEDFATYYCQSYSGISTTAFGGGTEVVIK
Return: 0.00089

Enquiry: Follow-up item: IgG1-ROR2-A-HC4LC1-FEAR (antibody, V domains shown, Humanized variant) VH: EVQLLESGGGLVQPGGSLRLSCTVSGFSLSSYSMSWVRQAPGKGLEWIGVIYVNSKTWYANWAKGRFTISKDNSKNTVYLQMNSLRAEDTATYYCARGDAGYTTNSWLWGQGTLVTVSS VL: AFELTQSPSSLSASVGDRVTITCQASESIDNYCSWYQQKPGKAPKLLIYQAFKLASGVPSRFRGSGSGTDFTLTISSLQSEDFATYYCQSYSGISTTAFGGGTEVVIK
Return: 0.0011

Enquiry: Follow-up item: IgG1-ROR2-A-HC7LC2-FEAR (antibody, V domains shown, Humanized variant) VH: EVQLLESGGGLVQPGGSLRLSCAASGFSLSSYSMSWVRQAPGKGLEWIGVIYVNSKTWYADSVKGRFTISKDNSKNTVYLQMNSLRAEDTATYYCARGDAGYTTNSWLWGQGTLVTVSS VL: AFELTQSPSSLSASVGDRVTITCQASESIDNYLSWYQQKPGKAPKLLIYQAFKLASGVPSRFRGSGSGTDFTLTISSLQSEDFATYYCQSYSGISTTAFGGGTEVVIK
Return: 0.0025

Enquiry: Follow-up item: IgG1-ROR2-A-HC3LC2-FEAR (antibody, V domains shown, Humanized variant) VH: EVQLLESGGGLVQPGGSLRLSCTVSGFSLSSYSMSWVRQAPGKGLEWIGVIYVNSKTWYANWAKGRFTISKTSTTVYLQMNSLRAEDTATYYCARGDAGYTTNSWLWGQGTLVTVSS VL: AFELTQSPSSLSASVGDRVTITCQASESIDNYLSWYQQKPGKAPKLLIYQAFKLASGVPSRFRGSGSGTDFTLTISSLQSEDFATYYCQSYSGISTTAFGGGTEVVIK
Return: 0.001
